Data credit: the supplement of paper PMC10567573

B1: FAM189A2 (parent)
chain: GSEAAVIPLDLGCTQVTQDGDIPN

Variants of: B1
PROTOCOL_TEXT: protein stability index of a GFP-peptide fusion (GPS, HEK-293T) (PSI 1-6); higher = more stable;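 also: lentivirally expressed fusions sorted by FACS into six bins by GFP to DsRed ratio, PSI derived from sequencing read proportions per bin multiplied by bin number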
CONDITION_LABEL: c terminus: a fixed tail appended
METRIC: protein stability index
Form field (numeric): enter value without unit.

Answered cases to consult:
Recorded protein stability index of S2T , please.
5.01

Recorded protein stability index of D10N , please.
5.14

Recorded protein stability index of N24K , please.
5.03

Recorded protein stability index of D19Q , please.
5.12

Recorded protein stability index of V16K , please.
5.09

***
Recorded protein stability index of I7F , please.
4.96
